STUDY_TARGET: RPS6KA3 KD1 KD2 (human) (UniProt P51812)
Sequence (P51812 whole entry, looked up): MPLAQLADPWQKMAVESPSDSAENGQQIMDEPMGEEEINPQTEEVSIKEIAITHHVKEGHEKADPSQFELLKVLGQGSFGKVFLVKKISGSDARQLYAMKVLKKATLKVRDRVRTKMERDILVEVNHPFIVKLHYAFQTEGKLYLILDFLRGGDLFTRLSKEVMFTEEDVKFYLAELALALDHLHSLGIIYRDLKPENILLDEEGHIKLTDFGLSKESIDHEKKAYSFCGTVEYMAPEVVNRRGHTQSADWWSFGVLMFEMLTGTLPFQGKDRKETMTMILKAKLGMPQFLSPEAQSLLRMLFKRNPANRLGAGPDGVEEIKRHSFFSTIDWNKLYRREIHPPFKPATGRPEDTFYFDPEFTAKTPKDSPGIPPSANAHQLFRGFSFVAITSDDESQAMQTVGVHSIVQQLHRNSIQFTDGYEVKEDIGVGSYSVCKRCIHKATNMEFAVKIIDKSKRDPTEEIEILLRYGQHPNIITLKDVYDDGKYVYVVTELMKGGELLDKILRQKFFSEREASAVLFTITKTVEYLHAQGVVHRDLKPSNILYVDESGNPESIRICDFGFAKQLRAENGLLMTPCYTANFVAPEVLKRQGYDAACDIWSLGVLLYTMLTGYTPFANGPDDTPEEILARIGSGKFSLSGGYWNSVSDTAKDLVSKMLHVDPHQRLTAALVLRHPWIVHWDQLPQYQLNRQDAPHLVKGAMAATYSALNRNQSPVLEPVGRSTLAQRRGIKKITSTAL
PROCEDURE_DETAILS: radiometric filter-binding kinase assay
EXPERIMENTAL_PARAMETERS: compound 0.1 µM
Please provide measured residual activity for the entries that follow.
Answers are plain numbers, in %.

For each listed entry, give its residual activity.
1. NC1(c2ccc(-c3nc4ccn5c(=O)[nH]nc5c4cc3-c3ccccc3)cc2)CCC1
2. CCc1cncnc1N1CCN(Cc2nc3cc(C(F)(F)F)ccc3[nH]2)CC1
3. CC1=C(CO)C(=O)O[C@@H]([C@@H](C)[C@H]2CC[C@H]3[C@@H]4C[C@H]5O[C@]56[C@@H](O)C=CC(=O)[C@]6(C)C4CC[C@]23C)C1 (stereo partly drawn)
4. CNc1nc(-c2ccc3c(N)n[nH]c3c2)cc(N2C[C@@H](C(=O)NC3CCCCC3)CC[C@H]2C)n1
5. c1ccc2c(-c3cnn4cc(-c5ccc(N6CCNCC6)cc5)cnc34)ccnc2c1
6. Cc1cc(NC(=O)c2cccc(NC(=O)/C=C/CN(C)C)c2)ccc1Nc1nccc(-c2cccnc2)n1

[91, 86, 114, 97, 73, 82]

Batch request: residual activity per item, same order as input.
1. Cc1ccc(-c2ccc3c(ccc4sc5c(c43)NC[C@@H](C)NC5=O)n2)cn1
2. CNC(=O)C1[C@H]2O[C@@](C)([C@@H]1N)n1c3ccccc3c3c4c(c5c6ccccc6n2c5c31)C(=O)NC4 (stereo partly drawn)

1. 104
2. 7
